test details: Cell viability assay (MTS) in DENV replicon cells
Type: cell-based, baby hamster
test parameters: hamster, DENV replicon cells (BHK pD2-hRucPac-2ATG30), DENV replicon BHK cells, MTS, 72 h
assay metric: log10(CC50 at 72 h) (log10 of the value in µM)
Could you please treat all values as log10 of CC50 at 72 h in µM?

Short answer for NC(=O)c1ncn([C@@H]2O[C@H](CO)[C@@H](O)[C@H]2O)c1O [Compound 2b, mizoribine, reference compound] : log10(CC50 at 72 h) was 1.52

Short answer for NC(=O)c1nc[nH]c1O [Compound 2a, 5-Hydroxy-1H-imidazole-4-carboxamide] : log10(CC50 at 72 h) was 1.36

Short answer for COc1c(C)c2c(c(O)c1C/C=C(\C)CCC(=O)O)C(=O)OC2 [Compound 6, mycophenolic acid, reference compound] : log10(CC50 at 72 h) was 0.15

Short answer for NC(=O)c1ncn([C@@H]2O[C@H](CO)[C@@H](O)[C@H]2O)n1 [Compound 1b, ribavirin, reference compound] : log10(CC50 at 72 h) was 1.30

Short answer for Nc1nc(N)c2ncn([C@@H]3O[C@H](CO)[C@@H](O)[C@H]3O)c2n1 : log10(CC50 at 72 h) was 1.49

Short answer for Nc1nc(N)c2[nH]cnc2n1 : log10(CC50 at 72 h) was 1.11
